# Tested on: PPARg:RXRa 90nM:30nM, anti-RXR (NR concentration 90 nM, RXRa partner concentration 30 nM)
# assay overview: PBM binding z-score (relative to random genomic background probes); higher = stronger binding; sequences stand for … in GC…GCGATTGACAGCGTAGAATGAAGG
The entries below are paired with their reported PBM binding z-score.
observation type: PBM binding z-score

INSERT INTO assay_data (biosequence, measured_number) VALUES
  ('TCTTGTAGATCAGCTGGTTAAGAAAGCTGGCCAA', 1.75),
  ('ATATGTAGGTTCAGGGTCATTCAGGTTGGTTCGC', 7.46),
  ('CCTTACGGGTCACTCCTGGTTATAGCATCGGAGT', 2.25),
  ('CCTCGGAGGACAACAGGAGGTCGGAGCTGCCAGA', -1.05),
  ('GCTCTGAGGACAAGGTCAGAGCTTTGTCCGTAGA', 1.22),
  ('TGAATGAGGTTATCAGATCAGGGAACGTTGCAAA', 1.28),
  ('CAAACTAGGTCACCGGAGGGTCAAAGTCCGCATG', 7.5),
  ('ACAGACAGGTGATGAAGGTAACTCAAGCTATCAT', -0.261),
  ('CATATAGGGTCAGCTAGGCCAGAGTAGGGACGGC', 2.26),
  ('ATATGTAGGCTAAGGGTCATTCAGGTTGGTTCGC', 9.65),
  ('ATCACTAGGTAAAGTTCAGTGAAAGATCGATAGA', 2.7),
  ('TAGCCTAGGTCAGATCGGGCTAGTATACGCTATA', 0.393),
  ('GCTAGTTGGGCAGTAAAAGGTCACACACCGGTCG', 3.19),
  ('ACTAGCAGGCCAAGTTTGGCTCACTCAAACAAAG', -0.715),
  ('CGCCCAAGGTCAGAGAGGTCAGTGAATGCCGAGT', 2.55);
